Molecular target: HLA-A*29:02
Assay: IEDB peptide-MHC binding, purified MHC/competitive/fluorescence; filed as Kd, often an IC50 or EC50 that approximates it; bounds were set here for any values at or beyond the usual limits of such assays
Conditions: source organism: Vibrio parahaemolyticus AQ3810
experimentalReadout: Kd

Look up and report measured Kd for this entry: `MLTNASGHA` ≥ 20 µM

###

Molecular target: HLA-C*15:02
Test: IEDB peptide-MHC binding, purified MHC/direct/fluorescence; filed as Kd, often an IC50 or EC50 that approximates it; bounds were set here for any values at or beyond the usual limits of such assays
Conditions: source organism: Yellow fever virus
experimentalReadout: Kd

Please look at `MWHVTRGAF` and tell me its recorded Kd on HLA-C*15:02. ≥ 20 µM
